Reported normalized growth values for the following compounds.
Assay: chemical genetic growth profiling, strain panel (AID 1159580);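 also: tested at 20 µM; growth read once vehicle control cultures reached saturation at 30 °C; 1 = growth at the plate median or of vehicle wells; lower values mean less growth of the strain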
Details: S. cerevisiae deletion strains, growth OD, locus YDR137W, strain rgp1, hits give low values
Hit rate of the full screen: of about 5,500 compounds, about 2,000 (36%) were called active. Roughly 18% stayed inconclusive and do not appear here. This is one part of the list.
Reply briefly: the number, and no unit.

These recorded examples may help you get a feel for the data.
- compound: "COc1ccc(CN(CCN(C)C)c2ncccn2)cc1"
  normalized growth: 1.01
- compound: "CCn1cc(C(=O)O)c(=O)c2cnc(N3CCCC3)nc21"
  normalized growth: 0.95
- compound: "CC(COc1ccccc1)N(CCCl)Cc1ccccc1 (stereo unspecified)"
  normalized growth: 0.853
- compound: "COc1cc(/C=C/C(=O)O)cc(OC)c1OC"
  normalized growth: 1
- compound: "CC1(C)C2CC(=O)O[C@@]3(C)C4=CC(=O)O[C@@H](c5ccoc5)[C@]4(C)CCC3[C@@]2(C)C=C[C@H]1O (stereo partly specified)"
  normalized growth: 1.01
- compound: "CC1=C(/C=C/C(C)=C/C=C/C(C)=C/CO)C(C)(C)CCC1"
  normalized growth: 1.03
- compound: "CC1(C)O[C@@H]2CC3C4CCC5=CC(=O)C=C[C@]5(C)C4[C@@H](O)C[C@]3(C)[C@]2(C(=O)CO)O1 (stereo partly specified)"
  normalized growth: 0.998
- compound: "O=C(O)CCCCC1SCC2NC(=O)NC21 (stereo unspecified)"
  normalized growth: 0.983
- compound: "CO[C@@H]1[C@@H](O[C@@H]2O[C@H](C)[C@@H](O[C@H]3C[C@@](C)(O)[C@H](O)[C@H](C)O3)[C@H](N(C)C)[C@H]2O)[C@@H](CC=O)C[C@@H](C)[C@@H](O[C@H]2CC[C@H](N(C)C)[C@@H](C)O2)/C=C/C=C/C[C@H](C)OC(=O)C[C@H]1O"
  normalized growth: 1.02
- compound: "O=C(O)c1cc(=O)c(O)c2c(O)c(O)ccc2c1"
  normalized growth: 0.907

Which normalized growth value belongs to CCn1cc(C(=O)O)c(=O)c2cc3c(cc21)OCO3 ?
0.857

// returns reported normalized growth for input CC1=C(/C=C/C(C)=C/C=C/C(C)=C/C(=O)O)C(C)(C)CCC1
0.824

Recorded normalized growth for CC[C@]1(O)CC2CN(CCc3c([nH]c4ccccc34)[C@@](C(=O)OC)(c3cc4c(cc3OC)N(C=O)[C@H]3[C@@](O)(C(=O)OC)[C@H](OC(C)=O)[C@]5(CC)C=CCN6CC[C@]43[C@@H]65)C2)C1 (stereo partly specified) , please?
0.989

* * *

Test: chemical genetic growth profiling, strain panel (AID 1159580)
Conditions: S. cerevisiae deletion strains, growth OD, locus YDL192W, strain arf1, hits give low values
In all, about 5,500 compounds went through this assay and about 2,000 (36%) were called active. Roughly 18% stayed inconclusive and do not appear here. Some of the results follow.
measured-quantity: normalized growth
Could you keep your reply to the number by itself?

Solved entries:
- compound: "CC1=C(/C=C/C(C)=C/C=C/C(C)=C/C(=O)O)C(C)(C)CCC1"
  normalized growth: 1.03
- compound: "CN(Cc1cc(Br)cc(Br)c1N)C1CCCCC1"
  normalized growth: 1.02

Please give the measured normalized growth for this compound: O=C1N=C(O)CN1/N=C\c1ccc(-c2ccc([N+](=O)[O-])cc2)o1
1.03

Any idea what normalized growth was measured for OCC(S)CS (stereo not drawn) ?
0.964

What does the data say about its normalized growth? Entry: CC1=C(/C=C/C(C)=C/C=C/C(C)=C/C=C/C=C(C)/C=C/C=C(C)/C=C/C2=C(C)CCCC2(C)C)C(C)(C)CCC1
1.02

Query: normalized growth; subject: O=C1OCCN1/N=C\c1ccc([N+](=O)[O-])o1
0.99

Please report the recorded normalized growth for CC(=O)OC/C=C(C)/C=C/C=C(C)/C=C/C1=C(C)CCCC1(C)C .
0.994

What value of normalized growth has been recorded for this entry: CC[C@@H](C(=O)O)[C@@H]1O[C@@H]([C@@H](C)[C@H](O)[C@H](C)C(=O)[C@H](CC)[C@H]2O[C@]3(C=C[C@@H](O)[C@]4(CC[C@@](C)(C5CC[C@](O)(CC)[C@H](C)O5)O4)O3)[C@H](C)C[C@@H]2C)[C@@H](C)C[C@H]1C (stereo partly drawn)
0.0725

Please give the measured normalized growth for this compound: NC(=O)N/N=C\c1ccc([N+](=O)[O-])o1
0.99

Please look up its normalized growth: Nc1c(Br)cc(Br)cc1CNC1CCC(O)CC1 (stereo not drawn)
0.995

* * *

As shown below, each of these compounds has a reported normalized growth value.
Assay: chemical genetic growth profiling, strain panel (AID 1159580)
Conditions: S. cerevisiae deletion strains, growth OD, locus YML032C, strain rad52, hits give low values
The whole screen tested about 5,500 compounds, of which about 2,000 (36%) were called active. Not shown: some 18% with an inconclusive outcome. The list shows a part of the results.

Previously resolved entries follow.
- structure-smiles: "CCn1cc(C(=O)O)c(=O)c2cnc(N3CCCC3)nc21"
  measured-quantity: "normalized growth"
  recorded-value: "0.999 (inactive)"
- structure-smiles: "O=c1cccc2n1C[C@H]1CNCC2C1"
  measured-quantity: "normalized growth"
  recorded-value: "1.01 (inactive)"
- structure-smiles: "CCn1cc(C(=O)O)c(=O)c2cc3c(cc21)OCO3"
  measured-quantity: "normalized growth"
  recorded-value: "1 (inactive)"
- structure-smiles: "CCOP(=S)(OCC)SCSCC"
  measured-quantity: "normalized growth"
  recorded-value: "1 (inactive)"
- structure-smiles: "NCc1ccc(S(N)(=O)=O)cc1"
  measured-quantity: "normalized growth"
  recorded-value: "0.99 (inactive)"
- structure-smiles: "CCn1cc(C(=O)O)c(=O)c2ccc(C)nc21"
  measured-quantity: "normalized growth"
  recorded-value: "0.883 (active)"

Note: attention shifts to another entry.
Value lookup for normalized growth; key = CCOC(=O)c1ccc(N)cc1
0.995 (inactive)

* * *

Experiment: chemical genetic growth profiling, strain panel (AID 1159580);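 also: tested at 20 µM; growth read once vehicle control cultures reached saturation at 30 °C; 1 = growth at the plate median or of vehicle wells; lower values mean less growth of the strain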
Conditions: S. cerevisiae deletion strains, growth OD, locus YER110C, hits give low values
Among all 5,500 compounds or so, about 2,000 (36%) were called active. Another 18% or so got no clear call; they are omitted. The list shows a part of the results.
Under this convention, MET denotes normalized growth strictly below 1 and NOT MET denotes normalized growth at or above 1.

Answered examples (2):
- structure-smiles: "COc1ccc(/C=C/c2cc(O)cc(O[C@@H]3O[C@H](CO)[C@@H](O)[C@H](O)[C@H]3O)c2)cc1O"
  cat: "NOT MET"
- structure-smiles: "COc1ccc(/C=C/c2cc(O)cc(O)c2)cc1"
  cat: "MET"

Identify whether the compound Nc1nc2ncc(CNc3ccc(C(=O)N[C@@H](CCC(=O)O)C(=O)O)cc3)nc2c(=O)[nH]1 records normalized growth below 1.
MET

* * *

Test: chemical genetic growth profiling, strain panel (AID 1159580);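 also: tested at 20 µM; growth read once vehicle control cultures reached saturation at 30 °C; 1 = growth at the plate median or of vehicle wells; lower values mean less growth of the strain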
Details: S. cerevisiae deletion strains, growth OD, locus YIR030C, strain dcg1, hits give low values
Hit rate of the full screen: of about 5,500 compounds, about 2,000 (36%) were called active. Another 18% or so got no clear call; they are omitted. The list shows a part of the results.
Recorded normalized growth by entry

# count of solved cases: 4
- compound: "O=C(O)c1cc(=O)c(O)c2c(O)c(O)ccc2c1"
  measured-quantity: "normalized growth"
  recorded-value: "1.03 (inactive)"
- compound: "COS(C)(=O)=O"
  measured-quantity: "normalized growth"
  recorded-value: "1.02 (inactive)"
- compound: "CO[C@@H]1[C@@H](O[C@@H]2O[C@H](C)[C@@H](O[C@H]3C[C@@](C)(O)[C@H](O)[C@H](C)O3)[C@H](N(C)C)[C@H]2O)[C@@H](CC=O)C[C@@H](C)[C@@H](O[C@H]2CC[C@H](N(C)C)[C@@H](C)O2)/C=C/C=C/C[C@H](C)OC(=O)C[C@H]1O"
  measured-quantity: "normalized growth"
  recorded-value: "1 (inactive)"
- compound: "CC(=O)N[C@@H]1[C@@H](C(O)[C@H](O)CO)O[C@](O)(C(=O)O)C[C@@H]1O (stereo not given in full)"
  measured-quantity: "normalized growth"
  recorded-value: "0.999 (inactive)"

Now for a further compound.
Please report the recorded normalized growth for CS(=O)(=O)OCCCCOS(C)(=O)=O .
0.962 (inactive)

* * *

Assay: chemical genetic growth profiling, strain panel (AID 1159580);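 also: tested at 20 µM; growth read once vehicle control cultures reached saturation at 30 °C; 1 = growth at the plate median or of vehicle wells; lower values mean less growth of the strain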
Conditions: S. cerevisiae deletion strains, growth OD, locus YJR043C, strain POL32
The campaign covered roughly 5,500 compounds. About 2,000 (36%) were called active. Another 18% or so got no clear call; they are omitted. No stated cut-off is given here; in the data, active means normalized growth mostly below about 0.91 (no sharp cut-off); inconclusive means no clear call, values can overlap the other calls; inactive means mostly above about 0.92. This is one part of the list.
Would you mind answering with one of these outcomes? active, inactive

- compound: "CC[C@]12CCCN3CCc4c(n(c5ccccc45)C(=O)C1)[C@@H]32"
  cat: "inactive"
- compound: "CC[C@@]1(C2O[C@@H](C3O[C@@](O)(CC)[C@H](C)C[C@@H]3C)C[C@@H]2C)CC[C@H]([C@]2(C)CCC3(C[C@H](O)[C@@H](C)[C@@H]([C@H](C)[C@@H](OC)[C@H](C)C(=O)O)O3)O2)O1 (some centres not stated)"
  cat: "inactive"
- compound: "O=c1cccc2n1C[C@H]1CNCC2C1"
  cat: "inactive"
- compound: "c1ccc(CSC2=NCCCN2)cc1"
  cat: "inactive"
- compound: "CCCNC(C)C(=O)Nc1ccccc1C (configuration not stated)"
  cat: "inactive"
- compound: "O=C1CC(c2ccccc2)=NO1"
  cat: "active"
- compound: "CC/C(=N/Oc1ccc(C(F)(F)F)cn1)c1ccc(-c2ccccc2F)cc1"
  cat: "inactive"
- compound: "CC[C@]12CCCN3CCc4c(n(c5ccccc45)[C@](O)(C(=O)OC)C1)[C@@H]32"
  cat: "inactive"

Hi, do you know how COc1cc(C(=O)O)c(O)c2c1OCO2 came out in this test?
inactive

Look up the recorded call for COc1cc(O)cc(/C=C/c2ccccc2)c1 in this test.
active

Would you mind telling me which call this test gave C/C=C/c1ccc(OC)cc1 ?
inactive

GET /call?item= Oc1cc(O)cc(/C=C/c2ccccc2)c1 returns the recorded outcome of this test.
inactive

meta.source: PubChem BioAssay AID1159580
